- protocol-text: NCI Yeast Anticancer Drug Screen. Data for the wt2 strain (AID 169);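 further: 0% = growth of vehicle-treated yeast cultures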
- experimental-parameters: S. cerevisiae wt2 strain growth inhibition; at 33.0 µM; active compounds read high
Compounds without any hit were thinned out: in the full panel of roughly 79,000, 15% have a hit.
reported-metric: growth inhibition (%)
Write down the numeric answer in % and omit the unit.

get_value(item= Cc1cc(O)c(C(C)C)cc1SC#N , readout=growth inhibition) returns 36

Value of measured growth inhibition for the entry CCCCCCCCCCCCCCCCCCN(C)C(COC)COP(=O)([O-])OCC[N+](C)(C)C (stereo not given) : 98

Entry O=[N+]([O-])[O][Sn]([O][Sn]([O][N+](=O)[O-])([c]1ccccc1)[c]1ccccc1)([c]1ccccc1)[c]1ccccc1 — recorded growth inhibition = -26

Value of measured growth inhibition for the entry N#[N+]c1c([O-])c2ccccc2c2ccccc12 : 60

// growth inhibition lookup, compound = CC(CN(C)C)C(=O)/C=C/c1ccc(Cl)c(Cl)c1 (stereo not given) , result: 70

Data point: O=C1CSC(c2ccccc2)N1c1ccc(-c2ccc(-n3c(-c4ccccc4)nc4ccccc4c3=O)cc2)cc1 (stereo not given) ; growth inhibition = 7

Sample CCC(OC(C)=O)C1CC(C(C)C)CCC1C (stereo not given) ; growth inhibition observed: -3

Record summary for Cc1ccc([N+](=O)[O-])c2c(NCCC[N+](C)(C)[O-])c3ccccc3nc12 : reported growth inhibition = 8

growth inhibition in this record for COc1ccccc1NC(=O)c1ccc(Cl)cc1 : -3

Entry O=C(O)CNC(c1ccccc1)(c1ccccc1)c1ccccc1 — recorded growth inhibition = 82
